In this section, each of the molecules is paired with its reported TGI.
Test system: ACHN renal
Test: NCI tumour cell line growth inhibition, 384-well format
experimental.readout: TGI (nM)

* CCN1CCN(Cc2ccc(-c3cc4c(N[C@H](C)c5ccccc5)ncnc4[nH]3)cc2)CC1 | 1520
* CC(C)[C@]12O[C@H]1[C@@H]1O[C@]13[C@]1(O[C@H]1C[C@H]1C4=C(CC[C@@]13C)C(=O)OC4)[C@@H]2O | 32.4
